Reference source for all entries: PubChem BioAssay

SYSTEM: Voltage-gated potassium channel subunit beta-2 (Rattus norvegicus) (UniProt P62483)
Sequence (P62483 whole entry, looked up): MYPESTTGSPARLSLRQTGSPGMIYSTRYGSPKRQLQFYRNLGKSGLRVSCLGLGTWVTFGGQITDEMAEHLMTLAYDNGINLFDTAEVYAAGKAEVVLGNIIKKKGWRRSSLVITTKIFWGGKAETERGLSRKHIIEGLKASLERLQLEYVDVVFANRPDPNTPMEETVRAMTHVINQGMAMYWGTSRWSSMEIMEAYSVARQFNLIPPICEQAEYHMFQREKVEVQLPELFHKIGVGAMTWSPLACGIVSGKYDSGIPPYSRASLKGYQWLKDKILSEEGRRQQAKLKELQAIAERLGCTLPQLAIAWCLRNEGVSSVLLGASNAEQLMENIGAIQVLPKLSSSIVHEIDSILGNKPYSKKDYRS
EXPERIMENT DESCRIPTION: KvBeta enzyme negative modulators, primary screen, biochemical, NADPH fluorescence (AID 622);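 further: slope of raw intensity against log time taken from 70 to 1610 s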
EXPERIMENTAL CONDITIONS: recombinant KvBeta, 4-cyanobenzaldehyde reduction, at 10 µM, stronger effect = higher value
Binary classification by fluorescence slope, with -0.4 as an inclusive lower bound for met; all other cases are not met.

These recorded examples may help you get a feel for the data.
{"COMPOUND": "Cc1ccc(NC(=O)CSc2nnc(-c3ccccn3)n2C)cc1", "GROUP": "not met"}
{"COMPOUND": "COc1ccc(-n2ncc3c(Nc4cccc(C)c4)ncnc32)cc1", "GROUP": "met"}
{"COMPOUND": "COCCCN1C(=O)C(=O)/C(=C(/O)c2ccc(OCC(C)C)cc2C)C1c1cccnc1 (stereo unspecified)", "GROUP": "not met"}
{"COMPOUND": "CCOC(=O)C1(c2ccccc2)NC(c2ccc(N(C)C)cc2)C2C(=O)N(C)C(=O)C21 (stereo unspecified)", "GROUP": "met"}

Here is another compound to look at.
Does the reported fluorescence slope for CCCSc1nc(O)c(C2OC(=O)c3c2ccc(OC)c3OC)c(=O)n1C (stereo unspecified) fall at or above the -0.4 mark? not met

---

SYSTEM: Voltage-gated potassium channel subunit beta-2 (Rattus norvegicus)
EXPERIMENT DESCRIPTION: KvBeta enzyme negative modulators, primary screen, biochemical, NADPH fluorescence (AID 622);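 further: slope of raw intensity against log time taken from 70 to 1610 s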
EXPERIMENTAL CONDITIONS: recombinant KvBeta, 4-cyanobenzaldehyde reduction, at 10 µM, stronger effect = higher value
Binary classification by fluorescence slope, with -0.5 as an inclusive lower bound for yes; all other cases are no.

{"COMPOUND": "COc1ccccc1C1/C(=C(\\O)c2ccc3c(c2)OCCO3)C(=O)C(=O)N1CCCN(C)C (stereo unspecified)", "GROUP": "yes"}
{"COMPOUND": "O=c1oc2c3c4c(cc2s1)CCCN4CCC3", "GROUP": "yes"}
{"COMPOUND": "COC(=O)c1cc2ccsc2n1Cc1nc(-c2ccc(OC)cc2)oc1C", "GROUP": "yes"}
{"COMPOUND": "O=C(COC(=O)C12CC3CC(CC(C3)C1)C2)NCc1ccco1", "GROUP": "no"}
{"COMPOUND": "COc1cc(=O)[nH]c(=O)n1CC(=O)c1ccccc1", "GROUP": "yes"}

Here is another compound to look at.
Does the reported fluorescence slope for Nn1c(SCC(=O)NC2CCCCC2)nnc1C1CC1 fall at or above the -0.5 mark? yes

---

EXPERIMENT DESCRIPTION: DUSP6 inhibitors restoring Erk phosphorylation by chemical complementation, primary imaging in DUSP6-transfected HeLa (AID 609)
EXPERIMENTAL CONDITIONS: HeLa MKP-3 transfected, phospho-Erk imaging KS statistic; measured here: nuclear pErk red intensity z-score; at 10 µM; stronger effect = higher value; cells stimulated with TPA for 15 min
What z-score was measured for each of the following?

Here are 8 compounds together with their reported answers.
{"COMPOUND": "CCC(NC(=O)NC1=NCCS1)(C(F)(F)F)C(F)(F)F", "VALUE": 0.179}
{"COMPOUND": "CCOC(=O)c1c2c(c(=S)n(-c3ccccc3)c1N)CCC2", "VALUE": -0.638}
{"COMPOUND": "COc1ccc(C2C(C#N)=C(C)NC3=C2C(=O)c2ccccc23)cc1 (stereo not given)", "VALUE": -1.69}
{"COMPOUND": "COCCCn1c(C)nc2c(c1=O)c1nc3ccccc3nc1n2CCc1ccccc1", "VALUE": -0.291}
{"COMPOUND": "COC(=O)c1ccc(C2/C(=C(\\O)c3ccc(OC)c(C)c3)C(=O)C(=O)N2c2cc(C)on2)cc1 (stereo not given)", "VALUE": 0.0353}
{"COMPOUND": "Cc1ccc(C2/C(=C(\\O)c3ccc4c(c3)OCCO4)C(=O)C(=O)N2CCCN(C)C)o1 (stereo not given)", "VALUE": -0.16}
{"COMPOUND": "O=C(c1ccc(=O)oc1)N1CCN(C(c2ccccc2)c2ccccc2)CC1", "VALUE": 1.67}
{"COMPOUND": "COC(=O)C(C)Sc1nc2c(c(=O)n(C)c(=O)n2C)n1CCC(C)C (stereo not given)", "VALUE": -1.37}

Give z-score for all compounds that follow.
1. Cn1c(=O)c2c(nc(NCc3ccc4c(c3)OCO4)n2Cc2ccccc2)n(C)c1=O
2. Cc1nc(SCC(=O)Nc2ccc3c(c2)OCO3)c(C#N)c2c1CCCC2

1. -1.17
2. 0.298

---

SYSTEM: Voltage-gated potassium channel subunit beta-2 (Rattus norvegicus) (UniProt P62483)
EXPERIMENT DESCRIPTION: KvBeta positive modulators, primary screen, biochemical, NADPH fluorescence (AID 623);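 further: fluorescence intensity change per second fitted from 20 to 320 s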
EXPERIMENTAL CONDITIONS: Recombinant KvBeta, NADPH fluorescence decrease slope, 10 min; at 10 µM; stronger effect = lower value
PROPERTY LABEL: NADPH fluorescence slope
One number for each entry.

Here are 5 molecules together with their reported answers.
{"MOLECULE": "Nc1nc(-c2ccc(Cl)cc2)nn1C(=O)c1cccnc1", "SYSTEM": "Voltage-gated potassium channel subunit beta-2 (Rattus norvegicus) (UniProt P62483)", "NADPH fluorescence slope": "6.7e-06"}
{"MOLECULE": "CCOC(=O)C(CCc1nnc(N)s1)C(=O)OCC", "SYSTEM": "Voltage-gated potassium channel subunit beta-2 (Rattus norvegicus) (UniProt P62483)", "NADPH fluorescence slope": "1.7e-06"}
{"MOLECULE": "O=C1C(=O)N(CCCn2ccnc2)C(c2ccccn2)/C1=C(/O)c1ccccc1 (stereo unspecified)", "SYSTEM": "Voltage-gated potassium channel subunit beta-2 (Rattus norvegicus) (UniProt P62483)", "NADPH fluorescence slope": "-5.2e-05"}
{"MOLECULE": "O=c1sc(Nc2ccccc2)nc2ccsc12", "SYSTEM": "Voltage-gated potassium channel subunit beta-2 (Rattus norvegicus) (UniProt P62483)", "NADPH fluorescence slope": "-2.1e-05"}
{"MOLECULE": "Cn1c(=O)oc2cc(S(=O)(=O)N3CCN(c4ccccn4)CC3)ccc21", "SYSTEM": "Voltage-gated potassium channel subunit beta-2 (Rattus norvegicus) (UniProt P62483)", "NADPH fluorescence slope": "-4.3e-05"}

From here, focus on the item given below.
Fill: NADPH fluorescence slope (Voltage-gated potassium channel subunit beta-2 (Rattus norvegicus) (UniProt P62483)) for this molecule Cc1nnc(N(C)C(=O)Cc2ccc3c(c2)OCO3)s1 1.1e-05

---

SYSTEM: Voltage-gated potassium channel subunit beta-2 (Rattus norvegicus) (UniProt P62483)
EXPERIMENT DESCRIPTION: KvBeta enzyme negative modulators, primary screen, biochemical, NADPH fluorescence (AID 622);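 further: slope of raw intensity against log time taken from 70 to 1610 s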
EXPERIMENTAL CONDITIONS: recombinant KvBeta, 4-cyanobenzaldehyde reduction, at 10 µM, stronger effect = higher value
PROPERTY LABEL: fluorescence slope
One number for each entry.

Here are 2 compounds together with their reported answers.
{"COMPOUND": "N#CC1=C(N)C(C#N)(C#N)[C@H](c2ccsc2)[C@H]2COCC=C12", "SYSTEM": "Voltage-gated potassium channel subunit beta-2 (Rattus norvegicus) (UniProt P62483)", "fluorescence slope": -0.538}
{"COMPOUND": "CCn1c(C)cc(=S)c2ccccc21", "SYSTEM": "Voltage-gated potassium channel subunit beta-2 (Rattus norvegicus) (UniProt P62483)", "fluorescence slope": -0.611}

Give fluorescence slope for all compounds that follow.
1. O=C(NC1CC1)C1CCN(c2ccc(S(=O)(=O)N3CCOCC3)cc2)CC1
2. N#Cc1cc2c(nc1SCC(=O)N1CCCCC1)CCCC2
3. COc1ccc(OC)c(C(=O)c2coc3ccc(O)c(CN4CCOCC4)c23)c1
4. COc1ccc(/C(O)=C2\C(=O)C(=O)N(Cc3ccco3)C2c2cc(OC)ccc2OC)cc1 (stereo not given)
5. CCOc1ccc2nc(NC(NC(C)=O)(C(=O)OC)C(F)(F)F)sc2c1 (stereo not given)

[-0.476, -0.473, -0.561, -0.452, -0.459]

Give fluorescence slope for all compounds that follow.
1. COc1cccc(C2=NOC(C(=O)N3CCN(c4ccccc4)CC3)C2)c1OC (stereo not given)
2. COc1ccc(Cn2nnnc2C(c2ccccn2)N2CCN(c3cc(Cl)ccc3C)CC2)cc1 (stereo not given)
3. COC(=O)NC(Nc1sc2c(c1C(N)=O)CCCC2)(C(=O)OC)C(F)(F)F (stereo not given)

[-0.536, -0.217, -0.431]

---

SYSTEM: Alpha-2C adrenergic receptor (Homo sapiens)
EXPERIMENT DESCRIPTION: modulators of alpha2C/GIRK thallium flux, primary screen, cell-based, HEK293 alpha2C/GIRK1/2 (AID 624);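 further: slope of fluorescence ratio to pre-addition baseline per second over 15 to 24 s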
EXPERIMENTAL CONDITIONS: thallium flux BTC fluorescence, at 10 µM, actives lie on both sides
PROPERTY LABEL: slope
Answers are plain numbers.

{"COMPOUND": "CCOC(=O)CSc1nnc2n1C(C)(C)Cc1ccccc1-2", "SYSTEM": "Alpha-2C adrenergic receptor (Homo sapiens)", "slope": 0.00549}
{"COMPOUND": "O=C(CSc1nnc(C2CC2)n1Cc1ccccc1)c1ccc(S(=O)(=O)N2CCOCC2)cc1", "SYSTEM": "Alpha-2C adrenergic receptor (Homo sapiens)", "slope": 0.00543}
{"COMPOUND": "CCOc1ccccc1OCC(=O)Nc1nnc(COC)s1", "SYSTEM": "Alpha-2C adrenergic receptor (Homo sapiens)", "slope": 0.00402}

Give slope for all compounds that follow.
1. CCCCN(C(=O)c1ccc(Cl)cc1)C1CC2CCC(C1)N2C (stereo unspecified)
2. COc1cccc(-c2nc3n(n2)C(c2ccccc2Cl)C(C(N)=O)=C(C)N3)c1 (stereo unspecified)
3. O=C(Cn1cc2c(n1)CCCC2)NCCc1ccccc1

[0.0056, 0.00613, 0.00628]

Give slope for all compounds that follow.
1. CCOC(=O)N1CCC(NC(=O)Cn2ncc3c4ccccc4n(C)c3c2=O)CC1
2. CCOc1ccccc1C(=O)Nc1cc(=O)n(C)c(=O)n1C
3. O=C(Nc1ncc(Br)s1)C1CCCN1S(=O)(=O)c1cccc2cccnc12 (stereo unspecified)
4. CCC1C(=O)N=C(SCC(=O)Nc2cccc3ccccc23)NC1=O (stereo unspecified)

[0.00602, 0.00585, 0.00689, 0.00593]

Identify measured slope associated with COc1ccc(Cn2c(-c3ccco3)nc3oc4ccccc4c(=O)c3c2=O)cc1 0.00596
